The reported numbers originate from PubChem BioAssay AID179.

Each item that follows carries a reported pEC50.
Tested on: CEM cells HIV-1 protection, formazan growth assay
Experiment: NCI AIDS Antiviral Assay
pEC50: −log10 of the molar value.
measured-property: pEC50

O=[N+]([O-])c1ccc(/C=C/c2ccc(N=Nc3ccc(/C=C/c4ccc([N+](=O)[O-])cc4S(=O)(=O)O)c(S(=O)(=O)O)c3)cc2S(=O)(=O)O)c(S(=O)(=O)O)c1
4.90
Cc1cccc(NC(=O)CC(=O)N2N=C(N(CCC#N)c3ccc(Cl)cc3)CC2c2ccccc2)c1 (centres undefined)
< 4.00
CC1(O)CC2C(CC1SCc1ccccc1)C2(C)C (centres undefined)
< 3.70
COc1c(O)cc2c(c1O)C(=O)C1=C(CCCC1)C2=O
< 4.01
CN(C)Cc1cc(C(=O)/C=C/c2ccc(Cl)cc2Cl)cc(CN(C)C)c1O
< 3.70
C=C1C(=O)OC2CC(C)C(/C=C/C(C)=O)=CCC12 (centres undefined)
< 3.44
O=C(CSc1nnc(CSc2ccc(Cl)cc2)n1-c1ccccc1)NC(=O)Nc1ccccc1
< 3.74
Cc1c2cc(O)c(=O)cc-2oc2cc(O)c(O)cc12
< 3.70
CCOC(=O)[C@H]1CSC[C@@H](C(=O)OC)N1
< 3.25

###

Test system: CEM cells HIV-1 protection, formazan growth assay
Test: NCI AIDS Antiviral Assay;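 active = compounds giving half or more protection of infected cells from virus-caused growth loss, again on retest; inactive = the rest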
Classes used: t for active, f for inactive

COc1ccc2ccc3c(CCN(C)C#N)cc4c(c3c2c1OC(C)=O)OCO4
f
CC1(C)Oc2ccc3c(=O)cc(-c4ccc(F)cc4)oc3c2C1C(=O)O (configuration not stated)
f
O=C(/C=C/c1ccc(Cl)c(Cl)c1)Oc1ccc(/C=C2\CCCCC2=O)cc1
f
COC(=O)/C=C1/N=C(N(C)/N=C/c2ccccc2)NC1=O
f
CC1OC(OC23C(=O)C[C@](C)(O)CC2(O)C=CC2C3=c3oc(-c4ccc(O)cc4)c4c3=C(C(=O)C(C3CC(OC5CCC(OC6CC(O)C(O)C(C)O6)C(C)O5)C(O)C(C)O3)=C4)C2O)CCC1O (some centres not stated)
f
CCOC(=O)C(NNc1ccccc1)C(c1ccccc1)[P+](c1ccccc1)(c1ccccc1)c1ccccc1 (configuration not stated)
f
O=c1nc(Nc2cccc(Cl)c2)oc2cc(Cl)oc(=O)c12
f
O=C(O)c1c[nH]n2c(=S)ncnc12
f
COCn1cnc2c(=O)n(-c3ccc(C)cc3)c(=S)n(-c3ccc(C)cc3)c21
f
COc1ccc2oc3c(OC)c(OC)c(OC)cc3c(=O)c2c1
f
Cc1ccccc1N(C)S(=O)(=O)c1ccccc1[N+](=O)[O-]
f
CN1C2CC(C#N)C1C=CC2=O (configuration not stated)
f
Cc1ccc2c(CC(=O)O)cc(=O)oc2c1
f
CN1/C(=C/C=C/C=C/C=C2C(=O)c3ccccc3C2=O)C(C)(C)c2ccccc21
t
Cc1ccc(S(=O)(=O)N/N=C2/CC[C@H](C(C)(C)C)C[C@@H]2C)cc1
f
Cc1ccc2[nH]c3c(c(=O)n(C)c(=O)n3C)c2c1
f
O=C1C2C3C=C4c5ccccc5N(c5ccccc5)C4(C2C(=O)N1c1ccc([N+](=O)[O-])cc1)[C@H]1C(=O)N(c2ccc([N+](=O)[O-])cc2)C(=O)[C@@H]31 (some centres not stated)
f

###

Tested on: CEM cells HIV-1 protection, formazan growth assay
Test: NCI AIDS Antiviral Assay
Details: measured here: growth of uninfected CEM cells
Where a SMILES comes first, the peptide text is derived from it. The star is where a group is joined. Cbz = O=C(OCc1ccccc1)*
One threshold, 4 µM, splits the recorded IC50 values: lower ones are criterion met, equal or higher ones are criterion not met.

O=C(O)Cn1c(=O)[nH]c(=O)c2c1ncn2Cc1ccccc1
criterion not met
CCOC(=O)c1c(-c2ccc(OC)c(O)c2)c(C#N)c(=S)n(C2OC(CO)C(O)C(O)C2O)c1-c1ccccc1 (configuration not stated)
criterion not met
CCOC(=O)CCC(NC(=O)C(CC(=O)OC)NC(=O)OCc1ccccc1)C(=O)NC(CC(=O)OC)C(=O)NC(CCC(=O)OCC)C(=O)NC(CC(=O)OC)C(=O)NC(CCC(=O)OCC)C(=O)NC(CC(=O)OCC)C(=O)OCC (configuration not stated) (Cbz-D(OMe)E(OEt)D(OMe)E(OEt)D(OMe)E(OEt)D(OEt)-OEt; configuration not given here)
criterion not met
O=c1c2cc([N+](=O)[O-])ccc2n2n1Cc1ccccc1CC2
criterion not met
COC(=O)c1cc(/C=C2\Cc3cc4c(cc3C2=O)CCC4)cc2c1CCC2
criterion not met
O=[N+]([O-])c1[nH]cnc1S
criterion not met
CCOC(=O)Nc1cc2c(c(N)n1)N=C(c1ccc3ccccc3c1)CN2
criterion met
O=c1oc2c/c(=C\c3ccccn3)c(=O)c3cccc1c3-2
criterion met
CC(C)CCCC(C)[C@H]1CC[C@H]2[C@@H]3CC[C@H]4C[C@@H](CCC=C(c5cc(Cl)c(O)c(C(=O)O)c5)c5cc(Cl)c(O)c(C(=O)O)c5)CC[C@]4(C)[C@H]3CC[C@]12C (some centres not stated) (tested in a mixture with another compound)
criterion not met
N#Cc1sc2c(c1OC(=O)c1ccc(C(F)(F)F)cc1)c(=O)n(-c1ccccc1)c(=S)n2-c1ccccc1
criterion met
CCOC(=O)c1cc(-c2ccc3ccccc3n2)c(O)c2cc3ccccc3nc12
criterion not met
CO/C(=N\N=C\c1cc(OC)ccc1OC)c1ccncc1
criterion not met
COc1cc(-c2cc(=O)c3c(OC)c(OC)c(OC)c(OC)c3o2)cc(OC)c1OC
criterion not met
CC(C)(CCCCC(C)(C)[N+](C)(C)C)[N+](C)(C)C
criterion not met
O=c1[nH]c(=O)n(CCOc2ccccc2)cc1Nc1ccccc1
criterion not met
CN(C)CCNCc1ccc(-c2cccc(-c3ccc(CNCCN(C)C)cc3)n2)cc1
criterion met
COc1ccc(COCC(Cn2ccnc2)OCc2ccc(C(=O)O)cc2)cc1 (configuration not stated)
criterion not met

###

System: CEM cells HIV-1 protection, formazan growth assay
Assay: NCI AIDS Antiviral Assay;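 active means compounds giving half or more protection of infected cells from virus-caused growth loss, again on retest; inactive means the rest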
Labels: true (1) = active, false (0) = inactive

NC(CSS(=O)(=O)O)=NCC12CC3CC(CC(C3)C1)C2
false (0)
NC(=O)NC1C(c2ccccc2)=NOC1C(N)=O (configuration not stated)
false (0)
Cc1cccc2c(=O)c3cccc([C@H](C)C(=O)O)c3oc12
false (0)
CC(C)CCCC(C)[C@H]1CCC2C3CC=C4C[C@@H](OP(=O)(O)OCCC=C(c5cc(Cl)c(O)c(C(=O)O)c5)c5cc(Cl)c(O)c(C(=O)O)c5)CC[C@]4(C)C3CC[C@@]21C (some centres not stated)
false (0)
COc1cccc(/C=N/[N-]C(=O)c2ccncc2)c1[O-].[OH3+].[Pd+2]
false (0)
COc1cccc(-c2nc(-c3cnccn3)n(COCCO)n2)c1
false (0)
O/N=C1/C2CC3CC1(c1ccccc1)CC(/C3=N/O)/C2=N\O (configuration not stated)
false (0)
COc1cc(/C=C(\OC(C)=O)c2ccc3c(c2)OCO3)cc(OC)c1OC
false (0)
O=C1NN=C(c2c[nH]c3ccccc23)CC1NCc1ccccc1 (configuration not stated)
false (0)
COc1ccc(-c2cc(=O)c3c(O)cccc3o2)cc1
false (0)
CCOC(=O)C1=NN(c2ccccc2)C(=O)/C1=C\N1C(=S)NC(=O)/C1=C\c1cccc([N+](=O)[O-])c1
false (0)
CCOP(=O)(OCC)C(C)(CC)N/C(=N/C(NC(C)=O)(C(F)(F)F)C(F)(F)F)NC1=NC(C(F)(F)F)(C(F)(F)F)N=C(C(F)(F)F)O1 (configuration not stated)
false (0)
COc1ccc(-c2coc3c(OC)c(OC)c(OC)c(OC)c3c2=O)cc1
false (0)
COC(=O)C1CC2C=CC1N(C(=O)OCc1ccccc1)C2 (configuration not stated)
false (0)
CN(C)CCNCc1ccc(-c2cccc(-c3ccc(CNCCN(C)C)cc3)n2)cc1
true (1)
Cc1nc(N)sc1C(=O)/C=C/c1ccc([N+](=O)[O-])cc1
false (0)
O=C1c2cccc([N+](=O)[O-])c2C(=O)N1CC[P+](c1ccccc1)(c1ccccc1)c1ccccc1
false (0)
O=c1oc2c(c(=O)n1-c1ccccc1)CC1(CCCCC1)C2
false (0)
CCSc1c(S)cnn(C)c1=O
true (1)
O=c1c2ccccc2oc2cc(Br)ccc12
false (0)
N#Cc1cccc(-n2[nH]c(=O)ccc2=O)c1
false (0)
N#C/C(=C\NC(=S)Nc1ccc(S(=O)(=O)Nc2ccccn2)cc1)C(N)=O
false (0)
CC1=N/C(=C\c2cccc([N+](=O)[O-])c2)C(=O)O1
false (0)
CC(CC(C)[C@H]1CCC2[C@H]3C(CC(=O)[C@@]21C)[C@@]1(C)CCC(O)C[C@H]1C[C@@H]3O)C(=O)O (some centres not stated)
false (0)
NC1CC=C(COC(=O)C(O)(c2ccccc2)C2CC2)CC1 (configuration not stated)
false (0)
CCOC(=O)C(NC(=O)c1cccc(Cl)c1)(Nc1cccc(C)c1)C(F)(F)F (configuration not stated)
false (0)
Cc1cc(C(O)(c2cc(C)c(O)c(C(=O)O)c2)c2cc(C)c(O)c(C(=O)O)c2)cc(C(=O)O)c1O
false (0)
CN(C)CCNc1ccc(NCCN(C)C)c2c1C(=O)c1ncsc1C2=O
false (0)
O=C1CSC(c2ccccc2[N+](=O)[O-])N1c1ccc(-c2ccc(-n3c(-c4ccccc4)nc4ccccc4c3=O)cc2)cc1 (configuration not stated)
false (0)
Cc1cccc(NC(=O)c2cc3cc(N=Nc4ccccc4Cl)ccc3oc2=O)c1
false (0)
CN(C)c1nc(N(C)C)nc(N2C(=O)CCC2=O)n1
false (0)
